assay: Plasma pharmacokinetic studies of idronoxil in rats (rectal in cocoa butter vs intestinal in lipid emulsion); format: in vivo, Male Sprague-Dawley rats; settings: male, Sprague-Dawley, rat, plasma, other: rectal, 10 mg/kg, Rectal delivery, cocoa butter, 10 mg/kg, 5 hr; read-out: Idronoxil Plasma Concentration Rat 2
Endpoint name: concentration at 5 h (ng/mL)
All answers are understood in ng/mL, so give the number only.

Tell us which concentration at 5 h value is on record for Oc1ccc(C2=Cc3ccc(O)cc3OC2)cc1 71.4

====

experiment: Plasma pharmacokinetic studies of idronoxil in rats (rectal in cocoa butter vs intestinal in lipid emulsion); format: in vivo, Male Sprague-Dawley rats; conditions: male, Sprague-Dawley, rat, plasma, other: rectal, 10 mg/kg, Rectal delivery, cocoa butter, 10 mg/kg, 4 hr; read-out: Idronoxil Plasma Concentration Rat 3
Endpoint name: concentration at 4 h
Note: a bare number is incomplete; add the unit.

Answer with the recorded concentration at 4 h of Oc1ccc(C2=Cc3ccc(O)cc3OC2)cc1 only. 22.3 ng/mL
